# Measurement target: 5-HT2a receptor (Homo sapiens, UniProt P28223)
# Sequence (P28223 whole entry): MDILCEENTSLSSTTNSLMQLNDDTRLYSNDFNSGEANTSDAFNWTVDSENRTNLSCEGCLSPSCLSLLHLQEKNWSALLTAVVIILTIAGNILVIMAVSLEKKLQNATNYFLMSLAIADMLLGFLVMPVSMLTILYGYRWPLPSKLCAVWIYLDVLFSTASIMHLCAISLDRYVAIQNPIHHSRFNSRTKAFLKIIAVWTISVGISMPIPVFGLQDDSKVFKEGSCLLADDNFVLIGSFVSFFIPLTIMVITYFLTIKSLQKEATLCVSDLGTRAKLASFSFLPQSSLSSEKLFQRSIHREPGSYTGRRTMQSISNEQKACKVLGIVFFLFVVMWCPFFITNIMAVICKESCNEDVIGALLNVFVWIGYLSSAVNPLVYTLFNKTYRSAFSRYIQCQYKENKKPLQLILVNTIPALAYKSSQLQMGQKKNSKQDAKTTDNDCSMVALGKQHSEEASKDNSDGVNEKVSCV
# Assay remarks: Serotonergic receptor binding selectivity, 5-HT2a
Observed property: Ki (nM)
A number alone suffices; assume nM.

Prompt line: Provide one value: measured Ki of C[C@H]1CN(c2ccc(C(F)(F)F)c3ccoc23)CCN1.O=C(O)/C=C/C(=O)O [Example 1, fumarate]
Response line: 37.6

###

# Measurement target: 5-HT2b receptor (Homo sapiens, UniProt P41595)
# Sequence (P41595 whole entry): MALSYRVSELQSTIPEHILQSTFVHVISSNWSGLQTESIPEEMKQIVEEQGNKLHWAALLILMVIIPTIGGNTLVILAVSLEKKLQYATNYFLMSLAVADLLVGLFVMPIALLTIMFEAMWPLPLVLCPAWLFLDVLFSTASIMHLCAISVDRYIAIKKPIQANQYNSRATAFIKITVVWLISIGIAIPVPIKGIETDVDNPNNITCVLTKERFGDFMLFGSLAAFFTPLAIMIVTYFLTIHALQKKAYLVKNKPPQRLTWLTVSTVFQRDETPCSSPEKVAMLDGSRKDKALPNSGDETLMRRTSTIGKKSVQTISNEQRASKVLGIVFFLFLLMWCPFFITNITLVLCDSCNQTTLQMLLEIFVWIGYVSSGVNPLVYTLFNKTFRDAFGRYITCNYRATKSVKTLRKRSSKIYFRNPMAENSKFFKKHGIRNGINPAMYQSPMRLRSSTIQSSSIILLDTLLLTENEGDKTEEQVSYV
# Assay remarks: Serotonergic receptor binding selectivity, 5-HT2b
# Measurement parameters: 5-HT RECEPTOR 2b; read-out: Ki, 5-HT receptor 2b
Observed property: Ki (nM)
A number alone suffices; assume nM.

Prompt line: Provide one value: measured Ki of CC[C@H]1CN(c2ccc(C(F)(F)F)c3ccoc23)CCN1.O=C(O)/C=C/C(=O)O [Example 2, fumarate]
Response line: 177

###

# Measurement target: 5-HT6 receptor (Homo sapiens, UniProt P50406)
# Sequence (P50406 whole entry): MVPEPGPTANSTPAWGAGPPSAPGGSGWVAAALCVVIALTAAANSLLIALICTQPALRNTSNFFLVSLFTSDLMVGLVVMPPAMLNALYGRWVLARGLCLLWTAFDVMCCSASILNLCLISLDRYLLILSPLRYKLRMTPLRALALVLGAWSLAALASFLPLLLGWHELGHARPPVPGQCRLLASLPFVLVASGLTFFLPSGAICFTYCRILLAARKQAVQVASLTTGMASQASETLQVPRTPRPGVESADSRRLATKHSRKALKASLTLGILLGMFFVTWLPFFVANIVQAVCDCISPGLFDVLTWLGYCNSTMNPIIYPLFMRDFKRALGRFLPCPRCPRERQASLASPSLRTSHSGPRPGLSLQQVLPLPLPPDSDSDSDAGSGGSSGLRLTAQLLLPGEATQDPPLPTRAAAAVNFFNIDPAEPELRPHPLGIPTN
# Assay remarks: Serotonergic receptor binding selectivity, 5-HT6
Observed property: pKi
# reply with the number alone; pKi is -log10 of concentration in mol/L

Prompt line: Provide one value: measured pKi of C[C@H]1CN(c2ccc(C(F)(F)F)c3ccoc23)CCN1.O=C(O)/C=C/C(=O)O [Example 1, fumarate]
Response line: 6.65

###

Listing of entries alongside the reported Ki.
# Measurement target: 5-HT1b receptor (Homo sapiens)
# Sequence (P28222 whole entry): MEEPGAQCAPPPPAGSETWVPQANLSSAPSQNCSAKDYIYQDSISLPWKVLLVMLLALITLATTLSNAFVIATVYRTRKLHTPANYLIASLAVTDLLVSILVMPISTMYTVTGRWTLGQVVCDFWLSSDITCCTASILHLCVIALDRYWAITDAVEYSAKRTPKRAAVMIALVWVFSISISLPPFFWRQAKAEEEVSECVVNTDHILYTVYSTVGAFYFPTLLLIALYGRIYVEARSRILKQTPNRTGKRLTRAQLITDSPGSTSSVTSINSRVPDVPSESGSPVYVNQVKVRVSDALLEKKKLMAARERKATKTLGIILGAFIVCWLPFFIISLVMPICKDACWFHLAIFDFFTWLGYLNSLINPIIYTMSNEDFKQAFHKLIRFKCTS
A number alone suffices; assume nM.

C[C@H]1CN(c2ccc(C(F)(F)F)c3ccoc23)CCN1.O=C(O)/C=C/C(=O)O [Example 1, fumarate]: 260

Prompt line: Provide one value: measured Ki of CC[C@H]1CN(c2ccc(C(F)(F)F)c3ccoc23)CCN1.O=C(O)/C=C/C(=O)O [Example 2, fumarate]
Response line: 2940

###

# Measurement target: UniProt:P08908
# Sequence (P08908 whole entry): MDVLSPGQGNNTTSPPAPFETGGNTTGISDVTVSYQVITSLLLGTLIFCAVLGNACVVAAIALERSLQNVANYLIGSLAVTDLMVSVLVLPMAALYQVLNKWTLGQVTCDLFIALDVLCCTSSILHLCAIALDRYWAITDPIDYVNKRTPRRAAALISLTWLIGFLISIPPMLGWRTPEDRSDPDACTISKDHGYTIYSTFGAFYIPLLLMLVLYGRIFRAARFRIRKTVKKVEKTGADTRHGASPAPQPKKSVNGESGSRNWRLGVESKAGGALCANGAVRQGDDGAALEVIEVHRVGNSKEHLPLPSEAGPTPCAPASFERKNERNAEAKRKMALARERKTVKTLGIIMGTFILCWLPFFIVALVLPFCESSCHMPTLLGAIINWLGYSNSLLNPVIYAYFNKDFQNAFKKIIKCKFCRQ
# Assay remarks: Serotonergic receptor binding selectivity, 5-HT1a
Observed property: pKi
# reply with the number alone; pKi is -log10 of concentration in mol/L

Prompt line: Provide one value: measured pKi of C[C@H]1CN(c2ccc(C(F)(F)F)c3ccoc23)CCN1.O=C(O)/C=C/C(=O)O [Example 1, fumarate]
Response line: 6.87
